# measured.on: P2X7 receptor (Homo sapiens (Human))
# Sequence (Q99572 whole entry): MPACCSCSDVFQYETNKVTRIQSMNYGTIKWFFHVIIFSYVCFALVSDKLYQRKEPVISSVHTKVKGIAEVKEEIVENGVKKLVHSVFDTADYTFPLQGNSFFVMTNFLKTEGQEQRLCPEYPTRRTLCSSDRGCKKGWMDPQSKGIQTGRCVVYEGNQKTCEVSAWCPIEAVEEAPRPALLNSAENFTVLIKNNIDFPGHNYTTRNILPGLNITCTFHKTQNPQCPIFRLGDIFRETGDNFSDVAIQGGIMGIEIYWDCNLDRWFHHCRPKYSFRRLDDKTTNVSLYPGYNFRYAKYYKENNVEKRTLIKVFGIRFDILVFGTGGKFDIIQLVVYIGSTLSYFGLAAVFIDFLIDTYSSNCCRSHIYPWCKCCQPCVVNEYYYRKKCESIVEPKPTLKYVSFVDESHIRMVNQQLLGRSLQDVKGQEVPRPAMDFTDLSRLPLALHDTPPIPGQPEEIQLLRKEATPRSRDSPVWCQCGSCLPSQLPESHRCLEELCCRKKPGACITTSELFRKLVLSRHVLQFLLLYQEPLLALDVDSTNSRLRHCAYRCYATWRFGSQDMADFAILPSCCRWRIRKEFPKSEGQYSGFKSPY
# assay.comment: Human P2X7 channel calcium-influx assay (Fluo-8 NW, FLIPR TETRA, Bz-ATP stimulation)
# experimental.parameters: HEK-293 cells stably transfected with P2X7 receptor, Low Divalent Cation Assay Buffer, read-out: hP2X7 IC50
This listing pairs molecules with measured log10(IC50).
Kindly note that the scale is log10 and the underlying IC50 is in nM.

Notebook: Cc1cnc(F)nc1OC1CCN(C(CNC(=O)c2c(F)cccc2Cl)c2scnc2C(F)F)CC1 (stereo not shown) [Example 55] , log10(IC50) read as 1.36

Notebook: O=C(NCC(c1scnc1C(F)F)N1CCC(COc2ncccc2Cl)CC1)c1c(F)cccc1Cl (stereo not shown) [Example 120] , log10(IC50) read as 1.51

Notebook: O=C(NCC(c1scnc1C(F)F)N1CCC(Oc2nccn3cnnc23)CC1)c1c(F)cccc1Cl (stereo not shown) [Example 46] , log10(IC50) read as 2.42

Notebook: Cc1ccc(OC2CCN(C(CNC(=O)c3c(F)cccc3Cl)c3scnc3C(F)F)CC2)nn1 (stereo not shown) [Example 29] , log10(IC50) read as 1.50

Notebook: Cc1ccc(OCC2CCN(C(CNC(=O)c3c(F)cccc3Cl)c3scnc3C(F)F)CC2)nn1 (stereo not shown) [Example 101] , log10(IC50) read as 1.94

Notebook: N#Cc1ccncc1OCC1CCN(C(CNC(=O)c2c(F)cccc2Cl)c2scnc2C(F)F)CC1 (stereo not shown) [Example 111] , log10(IC50) read as 1.35

Notebook: O=C(NCC(c1scnc1C(F)F)N1CCC(COc2cc(F)ccn2)CC1)c1c(F)cccc1Cl (stereo not shown) [Example 126] , log10(IC50) read as 1.56

Notebook: COc1nccc(OC2CCN(C(CNC(=O)c3c(F)cccc3Cl)c3scnc3C(F)F)CC2)n1 (stereo not shown) [Example 63] , log10(IC50) read as 1.61
